# reported IC50; entries follow
# System: Human IBAT (Homo sapiens)
# Construct: Puromycin-selected
# Sequence (Q12908 whole entry): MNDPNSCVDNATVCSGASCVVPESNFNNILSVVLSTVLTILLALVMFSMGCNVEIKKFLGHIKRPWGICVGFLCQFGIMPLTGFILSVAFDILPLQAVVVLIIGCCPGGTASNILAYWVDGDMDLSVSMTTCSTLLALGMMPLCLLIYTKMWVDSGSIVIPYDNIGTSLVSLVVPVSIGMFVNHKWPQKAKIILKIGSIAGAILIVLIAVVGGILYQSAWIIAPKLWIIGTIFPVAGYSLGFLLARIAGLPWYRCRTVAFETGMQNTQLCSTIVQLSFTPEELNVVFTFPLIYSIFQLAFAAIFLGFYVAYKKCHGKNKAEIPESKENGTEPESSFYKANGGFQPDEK
# Protocol summary: IBAT (h/m) assay, human IBAT-overexpressing cells, 3H-taurocholic acid uptake
# Condition context: 0.25 μM 3H-taurocholic acid and 5 μM cold taurocholic acid, 20 minutes, read-out: hIBAT IC50

>  <Molecule>
CCCCC1(C)CN(c2ccccc2)c2cc(SC)c(OCCC(=O)O)cc2S(=O)(=O)C1 (racemic) [Example 22]

>  <Measurement kind>
IC50

>  <Reading>
10 nM

$$$$
>  <Molecule>
CCCCC1(CC)CN(c2ccc(F)cc2)c2cc(SC)c(OCC(O)C(=O)O)cc2S(=O)(=O)C1 (stereo not shown) [Example 41]

>  <Measurement kind>
IC50

>  <Reading>
3 nM

$$$$
>  <Molecule>
CCCCC1(CC)CN(c2ccccc2)c2cc(Br)c(OCCC(=O)O)cc2S(=O)(=O)C1 (racemic) [Example 1]

>  <Measurement kind>
IC50

>  <Reading>
18 nM

$$$$

Now for the molecule whose IC50 we want.
Problem: Find the measured IC50 of CCCCC1(CC)CN(c2ccccc2)c2cc(SC)c(OCCC(=O)O)cc2S(=O)(=O)C1 (single isomer, unassigned) [Example 13] and report it.
Result: 4 nM

// provenance: patent US11773071B2
